molecular target: human PD-L1 (Homo sapiens (Human), UniProt Q9NZQ7); assay: T cell activation luciferase reporter cell culture system (T Cell Activation Assay); assay type: cell-based; settings: luciferase reporter assay; PD-L1 aAPC/CHO-K1 cells with PD-1 effector Jurkat T cells
Sequence (Q9NZQ7 19-290): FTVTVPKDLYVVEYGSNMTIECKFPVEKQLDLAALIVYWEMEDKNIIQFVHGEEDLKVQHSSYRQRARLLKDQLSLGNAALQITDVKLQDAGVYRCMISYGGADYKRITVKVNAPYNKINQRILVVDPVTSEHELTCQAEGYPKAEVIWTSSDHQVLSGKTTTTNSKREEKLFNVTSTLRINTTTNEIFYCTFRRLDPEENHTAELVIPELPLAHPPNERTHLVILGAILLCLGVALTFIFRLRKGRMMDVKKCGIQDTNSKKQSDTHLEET
parameter-measured: pEC50
Scale explanation: pEC50 corresponds to minus log10 of a concentration expressed in moles per litre.

Below, 4 compounds whose answers are already recorded.
{"compound": "COc1nc(-c2ccnc(-c3cccc(NC(=O)c4ccc(CNCCO)cn4)c3C)c2Cl)ccc1CNC1CCOCC1", "target-desc": "human PD-L1 (Homo sapiens (Human), UniProt Q9NZQ7)", "pEC50": 6.82}
{"compound": "COc1nc(-c2cccc(-c3ccnc(-c4ccc5c(CNC6CCS(=O)(=O)CC6)cn(C)c5c4)c3Cl)c2Cl)ccc1CNC[C@@H]1CCC(=O)N1", "target-desc": "human PD-L1 (Homo sapiens (Human), UniProt Q9NZQ7)", "pEC50": 7.20}
{"compound": "COc1nc(-c2cccc(-c3nccc(-c4ccc(CN5CC[C@H](O)C5)c(OC)n4)c3Cl)c2Cl)ccc1CN1CC[C@H](O)C1", "target-desc": "human PD-L1 (Homo sapiens (Human), UniProt Q9NZQ7)", "pEC50": 7.98}
{"compound": "COc1cc(-c2nccc(-c3cccc(NC(=O)c4ccc(CNC5CC6(COC6)C5)cn4)c3Cl)c2Cl)ccc1CNC1CC2(COC2)C1 (stereo not drawn)", "target-desc": "human PD-L1 (Homo sapiens (Human), UniProt Q9NZQ7)", "pEC50": 6.77}

Now for the compound whose pEC50 we want.
Given `COc1cc(-c2nccc(-c3cccc(-c4ccc(CN5CC6(CNC(=O)C6)C5)c(OC)n4)c3F)c2F)ccc1CN1CC2(CNC(=O)C2)C1` , state its recorded pEC50. 5.71
